- PROTOCOL TEXT: TOX21_p53_BLA_p5_viability: Viability Assessment in the Tox21 HCT-116 p53 Agonism Beta-lactamase Assay, Phase 5 (AID 2283600)
Records with an inconclusive call do not appear. Active and inactive are the calls of the source. The calls were made as follows: active = hit-call score of the fitted dose curve at least 0.9, where 1 is the maximum; inconclusive = response in the unintended direction; inactive = score below 0.9.
Outcome codes: label 1 for active, label 0 for inactive

INSERT INTO measurements (compound, label_value) VALUES
  ('CC(C#N)CCC#N (stereo not given)', 'label 0'),
  ('Cc1cc(=O)[nH]o1', 'label 0'),
  ('ClC1(Cl)C2(Cl)C3(Cl)C4(Cl)C(Cl)(Cl)C5(Cl)C3(Cl)C1(Cl)C5(Cl)C24Cl (stereo not given)', 'label 0'),
  ('COC(=O)c1sccc1S(=O)(=O)NC(=O)Nc1nc(C)nc(OC)n1', 'label 0'),
  ('c1ccc(N=NNc2ccccc2)cc1', 'label 0'),
  ('COc1ccc(C(O)(c2cncnc2)C2CC2)cc1 (stereo not given)', 'label 0'),
  ('OCc1ccco1', 'label 0'),
  ('Nc1cccc(Cl)c1', 'label 0'),
  ('CCCCCCCCCl', 'label 0'),
  ('OCC(O)CCl (stereo not given)', 'label 0'),
  ('CCCCP(CCCC)CCCC', 'label 0'),
  ('CC(C)c1cccc(C(C)C)c1O', 'label 0'),
  ('CCC[CH2][Sn]([CH2]CCC)([CH2]CCC)[O]C(=O)c1ccccc1', 'label 1'),
  ('COc1ccc(C=O)cc1OC', 'label 0'),
  ('CC(C)C1CCC(Cc2ccc(Cl)cc2)C1(O)Cn1cncn1 (stereo not given)', 'label 1');
